Reference source: patent US6608082B1

# tested target: MCR-1 (Homo sapiens, UniProt Q01726)
# Construct: expressed in transfected cells; host or cells: HEK 293
# Sequence (Q01726 whole entry): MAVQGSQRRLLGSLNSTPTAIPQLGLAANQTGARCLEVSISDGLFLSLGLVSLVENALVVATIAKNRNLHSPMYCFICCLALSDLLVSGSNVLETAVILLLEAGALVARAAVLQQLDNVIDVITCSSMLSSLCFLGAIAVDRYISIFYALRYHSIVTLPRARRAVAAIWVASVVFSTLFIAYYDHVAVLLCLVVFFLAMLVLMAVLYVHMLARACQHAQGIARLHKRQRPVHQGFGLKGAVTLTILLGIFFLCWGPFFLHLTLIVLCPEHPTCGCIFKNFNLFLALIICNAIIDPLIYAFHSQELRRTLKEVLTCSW
# test details: Melanocortin receptor binding assay, competition with 125I-HP 467, HEK 293 cells expressing hMCR-1
# study conditions: displacement of 125I-HP 467 at 10 μM isoquinoline compound; second of duplicate
# Description: All cell culture media and reagents were obtained from GibcoBRL (Gaithersburg Md.), except for COSMIC CALF SERUM (HyClone; Logan Utah). Cells were suspended in PBS, 10% COSMIC CALF SERUM and 1 mM CaCl2. […] To assay isoquinoline compounds, binding assays were performed in duplicate in a 96 well format. […] Cells were harvested on GF/B filter plates as described above and counted.
Quick rule for you: % Disp. MC-1 10 μM under 50% gets y, anything else gets n.

# example entries with known answers
NCCN1Cc2ccccc2C(CNC2CCCCC2)C1c1cc(Cl)cc(Cl)c1 (centres unmarked) | n
CNC(CN)CN1Cc2ccccc2C(CNC2CCCCC2)C1c1ccc(F)c(F)c1F (centres unmarked) | n

INPUT: Bench note: check whether Cc1cc(C2C(CNC3CCCCC3)c3ccccc3CN2CCN)cc(C)c1O (centres unmarked) shows % Disp. MC-1 10 μM below 50%
OUTPUT: y

INPUT: API: query returns whether the molecule falls strictly under 50% in % Disp. MC-1 10 μM. Query: CNC(CN)CN1Cc2ccccc2C(CNC2CCCCC2)C1c1ccc(Cl)cc1Cl (centres unmarked)
OUTPUT: n

INPUT: Given CNC(CN)CN1Cc2ccccc2C(CNC2CCCCC2)C1c1cccc(C)c1 (centres unmarked) , is recorded % Disp. MC-1 10 μM strictly lower than 50%?
OUTPUT: y

INPUT: Is % Disp. MC-1 10 μM of CNC(CN)CN1Cc2ccccc2C(CNC2CCCCC2)C1c1ccc(O)cc1 (centres unmarked) strictly below 50%?
OUTPUT: y

INPUT: Decide: % Disp. MC-1 10 μM of CNC(CN)CN1Cc2ccccc2C(CNC2CCCCC2)C1c1cccc(O)c1 (centres unmarked) strictly below 50%?
OUTPUT: y

* * *

Exercise: for every item that follows, state its recorded pIC50.
# tested target: MCR-1 (Homo sapiens)
# Construct: expressed in transfected cells; host or cells: HEK 293
# test details: Melanocortin receptor binding assay, competition with 125I-HP 467, HEK 293 cells expressing hMCR-1
# study conditions: inhibition of binding of 125I-HP 467, HEK 293 cells expressing MCR-1; TRG 2414 library; read-out: MC-1 IC50
One number for each entry, as −log10 of the molar value.

Recorded results for 3 compounds are shown here.
NCC(CCCCN1Cc2ccccc2C(CNCCc2cccc(Cl)c2)C1c1cc(C(F)(F)F)cc(C(F)(F)F)c1)NCCc1ccccc1 (stereo not shown) | 5.01
CCCOc1ccc(C2C(CNCc3ccccc3OCC)c3ccccc3CN2CCCCC(CN)NCCc2ccccc2)cc1 (stereo not shown) | 5.17
COc1ccccc1CCNCC1c2ccccc2CN(CCCCC(CN)NCCc2ccccc2)C1c1cccc(Oc2ccccc2)c1 (stereo not shown) | 5.45

INPUT: Given the compound CCCOc1ccc(C2C(CNCCc3cccc(Cl)c3)c3ccccc3CN2CCCCC(CN)NCc2ccccc2)cc1 (stereo not shown) , what is its reported pIC50?
OUTPUT: 5.38

* * *

Assign log10 of IC50 to each entry below.
# tested target: MCR-1 (Homo sapiens, UniProt Q01726)
# Construct: expressed in transfected cells; host or cells: HEK 293
# test details: Melanocortin receptor binding assay, competition with 125I-HP 467, HEK 293 cells expressing hMCR-1
# study conditions: inhibition of binding of 125I-HP 467, HEK 293 cells expressing MCR-1; TRG 2414 library; read-out: MC-1 IC50
Heads up: the numbers are on a log10 scale; they represent IC50 in µM.

Sample answers from the record:
NCC(N)CCCCN1Cc2ccccc2C(CNCc2ccccc2)C1c1ccc(Cl)cc1Cl (stereo not drawn) | 0.75
COc1cccc(CNCC2c3ccccc3CN(CCCCC(CN)NCCc3ccccc3)C2c2cc(C(F)(F)F)cc(C(F)(F)F)c2)c1 (stereo not drawn) | 0.83
COc1ccccc1CCNCC1c2ccccc2CN(CCCCC(CN)NCc2ccccc2)C1c1cccc(Oc2ccccc2)c1 (stereo not drawn) | 0.51
NCC(CCCCN1Cc2ccccc2C(CNC2CCCCCC2)C1c1ccc(Cl)cc1Cl)NCc1ccccc1 (stereo not drawn) | 0.34
CCCOc1ccc(C2C(CNCc3ccc(OC)cc3)c3ccccc3CN2CCCCC(CN)NCCc2ccccc2)cc1 (stereo not drawn) | 0.17

Batch request: log10 of IC50 for each of the following compounds.
1. NCC(CCCCN1Cc2ccccc2C(CNCCc2cccc(Cl)c2)C1c1ccc(Oc2ccccc2)cc1)NCCc1ccccc1 (stereo not drawn)
2. CCOc1ccccc1CNCC1c2ccccc2CN(CCCCC(N)CN)C1c1cc(C(F)(F)F)cc(C(F)(F)F)c1 (stereo not drawn)
3. COc1ccc(CNCC2c3ccccc3CN(CCCCC(N)CN)C2c2cccc(Oc3ccccc3)c2)cc1 (stereo not drawn)

OUTPUT:
1: 1.60; 2: 0.80; 3: 0.40
